- Test system: ATP;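 also: ATP exposure 15 min at 22 °C before imaging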
- METHOD: switch fluorescence ratio, 500 uM ATP over buffer (Cy3 cluster intensity, sum of 5 cycles each) (fold (ratio)); higher = stronger signal-on switching upon ATP binding; sequences stand for … in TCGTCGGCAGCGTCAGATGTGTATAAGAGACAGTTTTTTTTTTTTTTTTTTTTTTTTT…TC
- STUDY CONDITIONS: aptamer strand: ATP DNA aptamer (quencher-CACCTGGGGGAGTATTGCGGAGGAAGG + anchor), 100 nM annealed; ATP concentration: 500 uM
Please respond with reported switch fluorescence ratio for every item in the list.
Give bare numbers.

Solved cases (4 shown):
TAGGGTCATT; 0.999
TTGGTGGGTA; 0.988
TTTCTTGGTA; 1.02
CGTTGTTAGC; 0.992

Record switch fluorescence ratio per entry; entries follow.
1. AAAAGTTCGT
2. TTGGTTTAGG
3. GGGAGCTCTG
4. TATGACGCGG
5. TTGTAGGGT
6. AGGGAATAGC

A.
1: 0.983; 2: 0.983; 3: 1; 4: 0.983; 5: 0.986; 6: 1.01

Record switch fluorescence ratio per entry; entries follow.
1. TGAGGTTCGA
2. GGTGTCGTTT

A.
0.98
1.02

Record switch fluorescence ratio per entry; entries follow.
1. ATTTTTGGGC
2. GAGTTGAATT
3. GAAGGAAAGA

A.
1. 0.993
2. 0.993
3. 1.02

Record switch fluorescence ratio per entry; entries follow.
1. TTTTTGCCGC
2. GCTTTGTTGG
3. TTCGTGGGGG
4. GGTTTCGTTG

A.
1.02
0.984
0.991
1

* * *

- Tested on: ATP;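 also: ATP exposure 15 min at 22 °C before imaging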
- METHOD: switch fluorescence ratio, 500 uM ATP over buffer (Cy3 cluster intensity, sum of 5 cycles each) (fold (ratio)); higher = stronger signal-on switching upon ATP binding; sequences stand for … in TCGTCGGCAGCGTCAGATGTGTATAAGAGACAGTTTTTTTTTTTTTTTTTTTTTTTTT…TC
- STUDY CONDITIONS: aptamer strand: ATP DNA aptamer (quencher-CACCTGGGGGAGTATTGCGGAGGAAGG + anchor), 100 nM annealed; ATP concentration: 500 uM
MEASURED ATTRIBUTE: switch fluorescence ratio
One number for each entry.

Record switch fluorescence ratio per entry; entries follow.
1. AGGGGTTAGC
2. CGTGTATATA
3. GGTTTAGCCT
4. TAGGGCACA
5. ATCAGATAGG
6. GATGAGGGCG
7. TTTTAATTAG

A.
1. 0.974
2. 1.02
3. 1.04
4. 1.1
5. 1
6. 1.14
7. 1.01

Record switch fluorescence ratio per entry; entries follow.
1. GTATTAGAAG
2. ATCGGGGGTC
3. GCCGCACGGA
4. TTTAAAGCGG
5. CGGGCATATA
6. GTTCCTATGA

A.
1: 0.975; 2: 0.946; 3: 1.13; 4: 1.01; 5: 1.2; 6: 1.01

* * *

- System: ATP;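 also: ATP exposure 15 min at 22 °C before imaging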
- METHOD: switch fluorescence ratio, 500 uM ATP over buffer (Cy3 cluster intensity, sum of 5 cycles each) (fold (ratio)); higher = stronger signal-on switching upon ATP binding; sequences stand for … in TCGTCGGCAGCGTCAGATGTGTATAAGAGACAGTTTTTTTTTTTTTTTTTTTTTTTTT…TC
- STUDY CONDITIONS: aptamer strand: ATP DNA aptamer (quencher-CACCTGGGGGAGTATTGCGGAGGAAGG + anchor), 100 nM annealed; ATP concentration: 500 uM
Binary call on switch fluorescence ratio: label 1 from 1 upward, label 0 beneath that.

TTCGTGTGCC; label 0
AATTTTTCCG; label 1

Q. Could you verify whether the entry AAGTTATCAT shows switch fluorescence ratio of no less than 1?
A. label 0

Q. Next: TTAAGCCTGT
A. label 0

Q. Next: CAGGTAAGGC
A. label 1

Q. Next: TAAACGGGTA
A. label 1

Q. Next: GCTTCAAGAC
A. label 1

Q. Next: TATACGAAGA
A. label 1

Q. Next: GGCTCCGGCG
A. label 1

Q. Next: TGATGTTAGC
A. label 1

Q. Next: TGAGCTGAGG
A. label 0
